Where these numbers come from: PubChem BioAssay (NCI)

Please respond with reported GI50 for every item in the list.
System: SK-MEL-28 melanoma
Assay: NCI tumour cell line growth inhibition, 48 h

Looking up "O=C(Nc1ccc(-n2cc(-c3ccncc3)c(-c3ccc(Cl)c(O)c3)n2)cc1)Nc1ccc(Cl)c(C(F)(F)F)c1" , I see its GI50 listed as 1630 nM

Looking up "CN(CCCNC(=O)Cc1ccc2ccc3cccc4ccc1c2c34)CCCNc1cc(-c2ccc3ccccc3c2)nc2ccccc12" , I see its GI50 listed as 1910 nM

Looking up "O=C(Nc1ccc(-c2ccccc2)cc1)C1CCN(S(=O)(=O)c2ccccc2Cl)CC1" , I see its GI50 listed as > 100000 nM

Here's the next entry for you.
Looking up "[Au+].[Au+].[Au+].[c-]1nccn1Cc1ccccc1.[c-]1nccn1Cc1ccccc1.[c-]1nccn1Cc1ccccc1" , I see its GI50 listed as 2710 nM
